Listed here: items and their measured pIC50.
# System: ML-2;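 note: growth inhibition of ML-2 cells, measured with a cell viability readout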
# ASSAY_EXPLANATION: cells
# Assay type: functional, cell-based, Homo sapiens
# CONDITION_PARAMETERS: Homo sapiens, ML-2
# Description: SANGER: Inhibition of human ML-2 cell growth in a cell viability assay.
pIC50: −log10 of the molar value.

MOLECULE	pIC50
C#Cc1cccc(Nc2ncnc3cc(OCCOC)c(OCCOC)cc23)c1 [ERLOTINIB]	< 5.70
Cc1cn(-c2cc(NC(=O)c3ccc(C)c(Nc4nccc(-c5cccnc5)n4)c3)cc(C(F)(F)F)c2)cn1 [NILOTINIB]	< 5.70
COc1cc(-c2nn([C@H]3CC[C@H](N4CCN(C(C)=O)CC4)CC3)c3ncnc(N)c23)ccc1NC(=O)c1cc2ccccc2n1C	< 5.29
OCCCNc1cc(-c2ccnc(Nc3cccc(Cl)c3)n2)ccn1	< 6.59
Oc1ccc2ccccc2c1SSc1c(O)ccc2ccccc12	4.58
C=C(c1ccc(C(=O)O)cc1)c1cc2c(cc1C)C(C)(C)CCC2(C)C [BEXAROTENE]	< 5.10
Cn1cnc2c(F)c(Nc3ccc(Br)cc3Cl)c(C(=O)NOCCO)cc21 [SELUMETINIB]	6.53
CS(=O)(=O)c1ccc(C(=O)Nc2ccc(Cl)c(-c3ccccn3)c2)c(Cl)c1 [VISMODEGIB]	< 5.00
CN(C)C(=N)NC(=N)N [METFORMIN]	2.83

---

Overview of reported pIC50 across a group of molecules:
# Test system: MSTO-211H
# ASSAY_EXPLANATION: cells
# Type: functional, cell-based, Homo sapiens
# CONDITION_PARAMETERS: Homo sapiens, MSTO-211H
# Description: SANGER: Inhibition of human MSTO-211H cell growth in a cell viability assay.
pIC50: −log10 of the molar value.

MOLECULE	pIC50
Oc1ccc2ccccc2c1SSc1c(O)ccc2ccccc12	< 4.49
O=C(O)c1ccc(-c2c[nH]c3ncc(-c4ccccc4)cc23)cc1C1CCCC1	< 4.80
OCCCNc1cc(-c2ccnc(Nc3cccc(Cl)c3)n2)ccn1	< 6.59
CCN(CC)CCCCNc1ncc2cc(-c3cc(OC)cc(OC)c3)c(NC(=O)NC(C)(C)C)nc2n1	5.83
CC(C)c1ccccc1Cc1cc(C(=O)Nc2ccc(S(=O)(=O)c3ccccc3C(C)(C)C)cc2)c(O)c(O)c1O	6.10
COc1cc2ncn(-c3cc(OCc4ccccc4S(C)(=O)=O)c(C#N)s3)c2cc1OC [GSK-319347A]	< 5.30

---

# Tested on: U-266
# ASSAY_EXPLANATION: cells
# Type: functional, cell-based, Homo sapiens
# CONDITION_PARAMETERS: Homo sapiens, U-266
# Description: SANGER: Inhibition of human U-266 cell growth in a cell viability assay.
ASSAY_ENDPOINT: IC50

MOLECULE	MEASURED_TARGET	RESULT
COc1cc2ncn(-c3cc(OCc4ccccc4S(C)(=O)=O)c(C#N)s3)c2cc1OC [GSK-319347A]	U-266	> 5 µM
Nc1ccn([C@@H]2O[C@H](CO)[C@@H](O)C2(F)F)c(=O)n1	U-266	0.608 µM
Oc1ccc2ccccc2c1SSc1c(O)ccc2ccccc12	U-266	> 32 µM
CCN(CC)CCNC(=O)c1c(C)[nH]c(/C=C2\C(=O)Nc3ccc(F)cc32)c1C	U-266	> 8 µM
COc1cc2c(Nc3ccc(NC(=O)c4ccccc4)cc3)ncnc2cc1OCCCN1CCOCC1	U-266	2.84 µM
O=C(O)c1ccc(-c2c[nH]c3ncc(-c4ccccc4)cc23)cc1C1CCCC1	U-266	> 16 µM
CC[C@H](CO)Nc1nc(NCc2ccccc2)c2ncn(C(C)C)c2n1	U-266	> 16 µM
Nc1cccc2c1CN(C1CCC(=O)NC1=O)C2=O (centres undefined) [LENALIDOMIDE]	U-266	> 5 µM
N[C@@H](CSC(c1ccccc1)(c1ccccc1)c1ccccc1)C(=O)O	U-266	4.8 µM

---

# Test system: U-118-MG
# ASSAY_EXPLANATION: cells
# Assay type: functional, cell-based, Homo sapiens
# CONDITION_PARAMETERS: Homo sapiens, U-118-MG
# Description: SANGER: Inhibition of human U-118-MG cell growth in a cell viability assay.
pIC50: −log10 of the molar value.

QUERY_SMILES	MEASURED_TARGET	pIC50
Cc1cc([N+](=O)[O-])ccc1NS(=O)(=O)c1cc(Cl)ccc1Cl	U-118-MG	< 4.49
O=C(O)c1ccc(-c2c[nH]c3ncc(-c4ccccc4)cc23)cc1C1CCCC1	U-118-MG	< 4.80
CC(C)c1ccccc1Cc1cc(C(=O)Nc2ccc(S(=O)(=O)c3ccccc3C(C)(C)C)cc2)c(O)c(O)c1O	U-118-MG	6.72
CC1(C)CNc2cc(NC(=O)c3cccnc3NCc3ccncc3)ccc21	U-118-MG	< 5.70

---

Measured IC50, listed per entry for reference.
# Test system: Ca9-22;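 note: growth inhibition of Ca9-22 cells, read out with a cell viability assay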
# ASSAY_EXPLANATION: cells
# Format: functional, cell-based, Homo sapiens
# CONDITION_PARAMETERS: Homo sapiens, Ca9-22
# Description: SANGER: Inhibition of human Ca9-22 cell growth in a cell viability assay.
Where a name gives a salt, the structure may show the parent alone.

COMPOUND	VALUE_MODIFIER	IC50 / nM
CS(=O)(=O)c1ccc(C(=O)Nc2ccc(Cl)c(-c3ccccn3)c2)c(Cl)c1	>	10000
CCC/C=C/C=C/C(=O)O[C@H]1/C(=C/C(=O)OC)C[C@H]2C[C@H]([C@@H](C)O)OC(=O)C[C@H](O)C[C@@H]3C[C@H](OC(C)=O)C(C)(C)[C@](O)(C[C@@H]4C/C(=C/C(=O)OC)C[C@H](/C=C/C(C)(C)[C@]1(O)O2)O4)O3	>	8
N#Cc1c(O)c2c(-c3ccc(-c4ccccc4O)cc3)csc2[nH]c1=O	>	1020
COc1cc2c(Nc3ccc(NC(=O)c4ccccc4)cc3)ncnc2cc1OCCCN1CCOCC1	=	3290
CO[C@H]1C[C@@H]2CC[C@@H](C)[C@@](O)(O2)C(=O)C(=O)N2CCCC[C@H]2C(=O)O[C@H]([C@H](C)C[C@@H]2CC[C@@H](OC(=O)C(C)(CO)CO)[C@H](OC)C2)CC(=O)[C@H](C)/C=C(\C)[C@@H](O)[C@@H](OC)C(=O)[C@H](C)C[C@H](C)/C=C/C=C/C=C/1C	=	96.6
C=C(c1ccc(C(=O)O)cc1)c1cc2c(cc1C)C(C)(C)CCC2(C)C	>	8000
Cc1cc([N+](=O)[O-])ccc1NS(=O)(=O)c1cc(Cl)ccc1Cl	=	6000
COC1=CC(c2cc3ccccc3[nH]2)=N/C1=C\c1[nH]c(C)cc1C [OBATOCLAX MESYLATE]	=	111
O=C(O)c1ccc(-c2c[nH]c3ncc(-c4ccccc4)cc23)cc1C1CCCC1	>	16000
CC(C)CCN1c2nc(Nc3cc(F)c(O)c(F)c3)ncc2N(C)C(=O)C1C (stereo unspecified)	=	2660
Nc1ccn([C@@H]2O[C@H](CO)[C@@H](O)C2(F)F)c(=O)n1	=	1.54

---

Measured pIC50, listed per entry.
# Tested on: HT-3
# ASSAY_EXPLANATION: cells
# Assay type: functional, cell-based, Homo sapiens
# CONDITION_PARAMETERS: Homo sapiens, HT-3
# Description: SANGER: Inhibition of human HT-3 cell growth in a cell viability assay.
pIC50: −log10 of the molar value. Structures can show the parent of a compound that is named as a salt.
ASSAY_ENDPOINT: pIC50

COMPOUND	VALUE_MODIFIER	RECORDED_NUMBER
CN(C)C(=N)NC(=N)N	=	2.09
COC1=CC(c2cc3ccccc3[nH]2)=N/C1=C\c1[nH]c(C)cc1C [OBATOCLAX MESYLATE]	=	5.88
Cc1cc([N+](=O)[O-])ccc1NS(=O)(=O)c1cc(Cl)ccc1Cl	<	4.49
Nc1cccc2c1CN(C1CCC(=O)NC1=O)C2=O (stereo not given) [LENALIDOMIDE]	<	5.30
CC(C)c1ccccc1Cc1cc(C(=O)Nc2ccc(S(=O)(=O)c3ccccc3C(C)(C)C)cc2)c(O)c(O)c1O	=	6.72
Cc1cn(-c2cc(NC(=O)c3ccc(C)c(Nc4nccc(-c5cccnc5)n4)c3)cc(C(F)(F)F)c2)cn1	<	5.70
COc1cc2c(Nc3ccc(NC(=O)c4ccccc4)cc3)ncnc2cc1OCCCN1CCOCC1	<	5.40
Cn1cnc2c(F)c(Nc3ccc(Br)cc3Cl)c(C(=O)NOCCO)cc21	<	5.40
Nc1ccn([C@@H]2O[C@H](CO)[C@@H](O)C2(F)F)c(=O)n1	=	6.70
N#Cc1c(O)c2c(-c3ccc(-c4ccccc4O)cc3)csc2[nH]c1=O	<	5.99

---

# Tested on: NCI-H2126
# ASSAY_EXPLANATION: cells
# Assay type: functional, cell-based, Homo sapiens
# CONDITION_PARAMETERS: Homo sapiens, NCI-H2126
# Description: SANGER: Inhibition of human NCI-H2126 cell growth in a cell viability assay.

COMPOUND	IC50
COc1cc(N2CCN(C)CC2)ccc1Nc1ncc2c(n1)N(C)c1ccccc1C(=O)N2C	> 8 µM
COc1cc(-c2nn([C@H]3CC[C@H](N4CCN(C(C)=O)CC4)CC3)c3ncnc(N)c23)ccc1NC(=O)c1cc2ccccc2n1C	> 5.12 µM
Nc1cccc2c1CN(C1CCC(=O)NC1=O)C2=O (stereo not drawn) [LENALIDOMIDE]	> 5 µM

These entries and their values trace back to ChEMBL document CHEMBL1201861.
